The values you see were collected from the RNAGym collection of RNA variant scans (doi:10.1038/s41586-018-0170-7).

B1: tRNA (parent)
chain: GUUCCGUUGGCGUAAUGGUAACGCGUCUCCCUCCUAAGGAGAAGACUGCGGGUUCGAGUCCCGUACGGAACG

# Variants of: B1
# Assay Notes: yeast fitness, log relative to wild type (ln ratio); higher = fitter; tRNA-Arg(CCU), competitive growth, 37 C, 1 M NaCl
Rule: yeast fitness (ln) of -0.3 or more gives yes (1); anything lower gives no (0).

Polymer Sequence: GCUCCGUUGGCGUAAUGGUAACGCGUUUCCCUCCUAAGGAGAAGAUUGCGGGUUCGAGUCCCGUACGGGUCG [U2C C27U C46U A69G A70U]
Label Value: yes (1)
//
Polymer Sequence: GGUCCGUUGGCGUAAUGGUAACGCGUCUCCCUCCUAAGGAGACGAUUGCGGGUUCGAGUCCCGUACGGAUUG [U2G A43C C46U A70U C71U]
Label Value: yes (1)
//
Polymer Sequence: GGUCCAUUGGCGUAAUGGUAACGCGUCUCCCUCCUAAGGAGACGACUGCGGGUUCGAGUCCCGUAUGGAUCG [U2G G6A A43C C66U A70U]
Label Value: yes (1)
//
Polymer Sequence: AUUCCAUUGGCGUAAUGGUAACGCGUCUCCCUCCUAAGGAGACGACUGCGGGUUCGAGUCCCGUACGGAACG [G1A G6A A43C]
Label Value: yes (1)
//
Polymer Sequence: GCUCCAUUGGCGUAAUGGUAACGCGUUUCCCUCCUAAGGAGACGAUUGCGGGUUCGAGUCCCGUACGGAAUG [U2C G6A C27U A43C C46U C71U]
Label Value: yes (1)
//
Polymer Sequence: ACUCCAUUGGCGUAAUGGUAACGCGUCUCCCUCCUAAGGAGAAGAUUGCGGGUUCGAGUCCCGUAUGGGGUG [G1A U2C G6A C46U C66U A69G A70G C71U]
Label Value: yes (1)
//
Polymer Sequence: AGUCCUUUGGCGUAAUGGUAACGCGUUUCCCUCCUAAGGAGAAGAUUGCGGGUUCGAGUCCCGUAUGGGAUG [G1A U2G G6U C27U C46U C66U A69G C71U]
Label Value: no (0)
//
Polymer Sequence: AGUCCUUUGGCGUAAUGGUAACGCGUUUCCCUCCUAAGGAGAAGACUGCGGGUUCGAGUCCCGUAUGGAACG [G1A U2G G6U C27U C66U]
Label Value: no (0)
//
Polymer Sequence: GGUCCGUUGGCGUAAUGGUAACGCGUCUCCCUCCUAAGGAGAAGAUUGCGGGUUCGAGUCCCGUAAGGGGCG [U2G C46U C66A A69G A70G]
Label Value: yes (1)
//
Polymer Sequence: GCUCCAUUGGCGUAAUGGUAACGCGUCUCCCUCCUAAGGAGAAGAUUGCGGGUUCGAGUCCCGUAAGGAGUG [U2C G6A C46U C66A A70G C71U]
Label Value: yes (1)
//
Polymer Sequence: GUUCCUUUGGCGUAAUGGUAACGCGUUUCCCUCCUAAGGAGAAGACUGCGGGUUCGAGUCCCGUACGGGGUG [G6U C27U A69G A70G C71U]
Label Value: no (0)
//
Polymer Sequence: GGUCCGUUGGCGUAAUGGUAACGCGUUUCCCUCCUAAGGAGACGACUGCGGGUUCGAGUCCCGUACGGAUUG [U2G C27U A43C A70U C71U]
Label Value: yes (1)
//
Polymer Sequence: AUUCCUUUGGCGUAAUGGUAACGCGUCUCCCUCCUAAGGAGAAGACUGCGGGUUCGAGUCCCGUAAGGAUUG [G1A G6U C66A A70U C71U]
Label Value: yes (1)
//
Polymer Sequence: AUUCCUUUGGCGUAAUGGUAACGCGUCUCCCUCCUAAGGAGAAGACUGCGGGUUCGAGUCCCGUACGGAAUG [G1A G6U C71U]
Label Value: no (0)
//
Polymer Sequence: GGUCCUUUGGCGUAAUGGUAACGCGUCUCCCUCCUAAGGAGACGAUUGCGGGUUCGAGUCCCGUACGGGUUG [U2G G6U A43C C46U A69G A70U C71U]
Label Value: no (0)
//
Polymer Sequence: GGUCCAUUGGCGUAAUGGUAACGCGUCUCCCUCCUAAGGAGACGAUUGCGGGUUCGAGUCCCGUAUGGGUUG [U2G G6A A43C C46U C66U A69G A70U C71U]
Label Value: no (0)
//
Polymer Sequence: AUUCCAUUGGCGUAAUGGUAACGCGUUUCCCUCCUAAGGAGACGAUUGCGGGUUCGAGUCCCGUACGGAGCG [G1A G6A C27U A43C C46U A70G]
Label Value: yes (1)
//
Polymer Sequence: GUUCCGUUGGCGUAAUGGUAACGCGUUUCCCUCCUAAGGAGAAGAUUGCGGGUUCGAGUCCCGUACGGAGUG [C27U C46U A70G C71U]
Label Value: yes (1)
